Consider the following compounds and their measured TGI readings.
System: MCF7 breast
Assay: NCI tumour cell line growth inhibition, 48 h
Endpoint name: TGI

[[record]]
compound = "CCCCCCCCCCCCCCCC(=O)Nc1ccn(C2CC(OP(=O)(O)OCC3OC(n4cc(F)c(=O)[nH]c4=O)CC3OC(C)=O)C(CO)O2)c(=O)n1 (configuration not stated)"
study_system = "MCF7 breast"
observed_measurement = "> 100 µM"

[[record]]
compound = "CCN(CC)C(=S)SS(=O)(=O)c1ccc(N)cc1"
study_system = "MCF7 breast"
observed_measurement = "> 100 µM"

[[record]]
compound = "CCOC(=O)c1ccc(C(=O)/C(C#N)=C2\\CCCN2)n1C"
study_system = "MCF7 breast"
observed_measurement = "> 100 µM"

[[record]]
compound = "COc1ccc(NC(=S)N/N=C(\\c2ccccc2)c2ccccn2)cc1"
study_system = "MCF7 breast"
observed_measurement = "0.703 µM"

[[record]]
compound = "CCOc1ccccc1C(=O)/C=C/c1cc2ccccc2[nH]c1=O"
study_system = "MCF7 breast"
observed_measurement = "1.41 µM"

[[record]]
compound = "O=C(CCC1CCCCC1)NCc1ccc(C(=O)O)cc1"
study_system = "MCF7 breast"
observed_measurement = "> 100 µM"

[[record]]
compound = "N#Cc1c(=N)cc2c3ccccc3oc3c(C#N)c(N)[nH]c1c32"
study_system = "MCF7 breast"
observed_measurement = "> 100 µM"


====

Below: a set of entries, each annotated with reported TGI.
Test system: 786-0 renal
Experiment: NCI tumour cell line growth inhibition, 48 h
Endpoint name: TGI (µM)

[[record]]
molecule = "O=C([CH-]C(=O)C(F)(F)F)c1ccccc1.O=C([CH-]C(=O)C(F)(F)F)c1ccccc1.[O]=[U+2]=[O]"
relation_qualifier = "="
observed_measurement = 89.4

[[record]]
molecule = "CC(C)NC1(C(N)=O)CCN(Cc2ccccc2)CC1"
relation_qualifier = ">"
observed_measurement = 100

[[record]]
molecule = "O=C(CCC1CCCCC1)NCc1ccc(C(=O)O)cc1"
relation_qualifier = ">"
observed_measurement = 100

[[record]]
molecule = "CCCCNC(=O)OCCN=C1c2ccccc2C(Br)C(Br)c2ccccc21 (centres undefined)"
relation_qualifier = "="
observed_measurement = 28.3


====

Test system: U251 CNS
Labels: active, inactive

[[record]]
item_smiles = "O=S(=O)(Nc1ccc2ccccc2c1)N1CCCCC1"
answer_label = "inactive"

[[record]]
item_smiles = "C#CCNCCCN1C(=O)c2ccc3c4c(ccc(c24)C1=O)C(=O)N(CCCNCC#C)C3=O"
answer_label = "active"

[[record]]
item_smiles = "Fc1ccc(-c2ncn(C3CCNCC3)c2-c2ccnc(Oc3cccc(C(F)(F)F)c3)n2)cc1"
answer_label = "inactive"


====

System: TK-10 renal
Assay: NCI tumour cell line growth inhibition, 48 h
In this section, each of the molecules is paired with its reported TGI.
Endpoint name: TGI

[[record]]
item_smiles = "C=C1CC[C@]2(C)[C@H](CC[C@@]34C[C@@H](CC[C@H]32)[C@@H](C(=O)O)C4)C1(C)C"
endpoint_name = "TGI"
observed_measurement = "> 12.5 µM"

[[record]]
item_smiles = "CC1(C)OCC[C@@H]1[Si](C)(C)C"
endpoint_name = "TGI"
observed_measurement = "> 100 µM"

[[record]]
item_smiles = "CNC(=O)c1ccc(C(=O)NCCCCCN(O)C(=O)CCC(=O)NCCCCCN(O)C(=O)CCC(=O)NCCCCCN(O)C(C)=O)c(O)c1O"
endpoint_name = "TGI"
observed_measurement = "> 100 µM"

[[record]]
item_smiles = "CN1CCN(Cc2nc3cccc4c3c([n+]2[O-])-c2ccccc2-4)CC1"
endpoint_name = "TGI"
observed_measurement = "> 100 µM"

[[record]]
item_smiles = "CC(C)OP(=O)(OC(C)C)/C(F)=N/Nc1ccc([N+](=O)[O-])cc1"
endpoint_name = "TGI"
observed_measurement = "> 100 µM"

[[record]]
item_smiles = "N#Cc1c(=N)cc2c3ccccc3oc3c(C#N)c(N)[nH]c1c32"
endpoint_name = "TGI"
observed_measurement = "> 100 µM"


====

Recorded TGI for the following compounds
Test system: HCT-15 colon
Assay: NCI tumour cell line growth inhibition, 48 h
Endpoint name: TGI

[[record]]
compound = "CC1(O)C(C)(O)C(C)(O)C1(C)O (stereo not drawn)"
observed_measurement = "> 100 µM"

[[record]]
compound = "CCCCCCCCCCCCCCCC(=O)Nc1ccn(C2CC(OP(=O)(O)OCC3OC(n4cc(F)c(=O)[nH]c4=O)CC3OC(C)=O)C(CO)O2)c(=O)n1 (stereo not drawn)"
observed_measurement = "> 65.4 µM"

[[record]]
compound = "CC1(C)OCC[C@@H]1[Si](C)(C)C"
observed_measurement = "> 100 µM"


====

Test system: NCI-H460 lung
Outcomes: active, inactive

[[record]]
compound = "COc1ccc(C(O)c2cc3c(N)c(C(=O)Nc4ccccc4)sc3nc2C)cc1 (centres undefined)"
answer_label = "active"

[[record]]
compound = "O=C1C=CC2(NN=C(c3ccccc3)N2c2ccccc2)c2cccc(O)c21 (centres undefined)"
answer_label = "inactive"

[[record]]
compound = "O=C(NNC(=O)c1ccccc1S)c1ccccc1S"
answer_label = "active"

[[record]]
compound = "COc1ccc(/C=C/C(=O)Nc2cc(/C=C\\c3cc(OC)c(OC)c(OC)c3)cc(OC)c2OC)cc1OC"
answer_label = "inactive"

[[record]]
compound = "COC(=O)c1ccc(C2SC(C)C(=O)N2NC(=O)C(O)c2ccccc2)cc1 (centres undefined)"
answer_label = "inactive"

[[record]]
compound = "Cn1cc(-c2csc(-c3c[nH]c4ccccc34)n2)c2cccnc21"
answer_label = "active"

[[record]]
compound = "COC(=O)[C@]12CC[C@@H](C)[C@H](C)[C@@H]1C1=CC[C@@H]3[C@@]4(C)C[C@@H](OC(C)=O)[C@H](O)[C@@](C)(CO)[C@@H]4[C@H](O)C[C@@]3(C)[C@]1(C)CC2"
answer_label = "inactive"

[[record]]
compound = "O=S(=O)(Nc1ccc2ccccc2c1)N1CCCCC1"
answer_label = "inactive"

[[record]]
compound = "C=C(C)[C@@H]1CC[C@]2(C(N)=O)CC[C@]3(C)[C@H](CC[C@@H]4[C@@]5(C)C/C(=C/c6cccnc6)C(=O)C(C)(C)[C@@H]5CC[C@]43C)[C@@H]12"
answer_label = "inactive"


====

Tested on: RXF 393 renal
Assay: NCI tumour cell line growth inhibition, 48 h
Endpoint name: TGI

[[record]]
compound = "NS(=O)(=O)c1ccc(N=Nc2c(O)[nH]c3ccc(Cl)cc23)cc1"
observed_measurement = "> 25 µM"

[[record]]
compound = "CC1CC(c2ccccc2)Nc2nc3ccccc3n21 (stereo not drawn)"
observed_measurement = "> 100 µM"

[[record]]
compound = "O=C(Nc1ccccc1C(=O)N/N=C(\\c1ccccc1)c1ccccn1)c1ccccc1"
observed_measurement = "> 82.4 µM"


====

System: M14 melanoma
Assay: NCI tumour cell line growth inhibition, 48 h
Measured TGI accompanies every entry in the list below.
Endpoint name: TGI

[[record]]
molecule = "CCCCCCCC/C=C/CCCCCCCC(=O)N(O)C1CC(n2cc(C)c(=O)[nH]c2=O)OC1CO (stereo not drawn)"
endpoint_name = "TGI"
observed_measurement = "10.1 µM"

[[record]]
molecule = "CC(NC(=O)OC(C)(C)C)C(=O)NC1CCCC1 (stereo not drawn)"
endpoint_name = "TGI"
observed_measurement = "> 100 µM"

[[record]]
molecule = "COc1ccc(-c2onc(-c3ccc([N+](=O)[O-])cc3)c2C2=NCCCN2)cc1"
endpoint_name = "TGI"
observed_measurement = "> 100 µM"


====

Tested on: SF-268 CNS
Test: NCI tumour cell line growth inhibition, 48 h
The entries below are paired with their reported log10 TGI.
Endpoint name: log10 TGI (log10 of the value in µM)

[[record]]
molecule = "COc1ccc2c(c1OC)C(=O)OC2C1c2c(c(N)c3c(c2OC)OCO3)CCN1C (configuration not stated)"
observed_measurement = 1.36

[[record]]
molecule = "CCCCCN1C(=O)/C(=c2\\sc3n(c2=O)C2C(NN=3)N(CC)C(=O)N2CC)c2ccccc21 (configuration not stated)"
observed_measurement = 0.58

[[record]]
molecule = "CN(C)CCNC(=O)C1COc2cc(-c3cc(=O)c4ccccc4o3)ccc2O1 (configuration not stated)"
observed_measurement = 1.71

[[record]]
molecule = "Cc1ccc(I)cc1N=C=S"
observed_measurement = 1.88

[[record]]
molecule = "CCNCCNc1cc(-c2ccc(Cl)c(Cl)c2)c(C#N)c2nc3ccccc3n12"
observed_measurement = 0.52


====

Property: TGI; scope: individual compounds
Test system: SN12C renal
Test: NCI tumour cell line growth inhibition, 48 h
Endpoint name: TGI

[[record]]
item_smiles = "O=C(NCCn1ccnn1)Nc1ccccc1"
observed_measurement = "> 100 µM"

[[record]]
item_smiles = "O=S(=O)(Nc1nc2ccccc2n1S(=O)(=O)c1ccccc1)c1ccccc1"
observed_measurement = "> 100 µM"

[[record]]
item_smiles = "O=C1C(c2ccccc2)=[N+]([O-])c2ccc(Cl)cc21"
observed_measurement = "67.4 µM"

[[record]]
item_smiles = "O=C1c2ccccc2S(=O)(=O)N1CSC(=S)N1CCOCC1"
observed_measurement = "> 100 µM"

